Target: HIV-1 RT wild-type enzyme (Human immunodeficiency virus type 1 group M subtype B (isolate HXB2) (HIV-1))
Assay: HIV-1 reverse transcriptase inhibitory activity (RT polymerase assay)
Assay type: biochemical
Conditions: HIV-1 RT wild-type enzyme 83 pM; RNA-dependent DNA polymerase activity; read-out: IC50
pIC50: −log10 of the molar value.
# pIC50 per record follows
property: pIC50

1. CC(F)(F)c1ncn(Cc2cc(C(F)F)n[nH]c2=O)c(=O)c1Oc1cccc(C#N)c1F	7.77
2. COc1ccc(F)cc1-c1cc(Cn2cnc(C(F)(F)F)c(Oc3cc(Cl)cc(C#N)c3)c2=O)n[nH]c1=O	6.90
3. CCc1ncc(Cn2cnc(C(F)(F)F)c(Oc3cc(Cl)cc(C#N)c3)c2=O)c(=O)[nH]1	8.05
4. Cn1nc(Cn2cnc(C(F)(F)F)c(Oc3cc(Cl)cc(C#N)c3)c2=O)cc(Br)c1=O	7.42
5. N#Cc1cc(Cl)cc(Oc2c(C(F)(F)F)ncn(Cc3cc(-c4ccc(F)c(F)c4)c(=O)[nH]n3)c2=O)c1	8.52
6. N#Cc1cc(Cl)cc(Oc2c(C(F)(F)F)ncn(Cc3cc(-c4ccc(C(F)(F)F)cc4)n[nH]c3=O)c2=O)c1	7.92
7. N#Cc1cc(Cl)cc(Oc2c(C(F)(F)F)ncn(Cc3cc(Br)c(=O)[nH]n3)c2=O)c1	8.22
8. N#Cc1cc(Cl)cc(Oc2c(C(F)(F)F)ncn(Cc3cc(-c4ccc(C(O)C(F)F)cc4)c(=O)[nH]n3)c2=O)c1 (centres unmarked)	8.00
9. CC(C)(O)c1cc(Cn2cnc(C(F)(F)F)c(Oc3cc(Cl)cc(C#N)c3)c2=O)n[nH]c1=O	6.91
10. CC(O)c1cc(Cn2cnc(C(F)(F)F)c(Oc3cc(Cl)cc(C#N)c3)c2=O)n[nH]c1=O (centres unmarked)	6.96
11. N#Cc1cc(Cl)cc(Oc2c(C(F)(F)F)ncn(Cc3n[nH]c(=O)c4cccnc34)c2=O)c1	6.72
12. N#Cc1ccc(-c2cc(Cn3cnc(C(F)(F)F)c(Oc4cc(Cl)cc(C#N)c4)c3=O)n[nH]c2=O)cc1	7.70
13. Cc1ccc(F)cc1-c1cc(Cn2cnc(C(F)(F)F)c(Oc3cc(Cl)cc(C#N)c3)c2=O)n[nH]c1=O	6.78
14. COC(=O)c1cc(Cn2cnc(C(F)(F)F)c(Oc3cc(Cl)cc(C#N)c3)c2=O)n[nH]c1=O	7.64
15. COc1ccc(F)c(-c2cc(Cn3cnc(C(F)(F)F)c(Oc4cc(Cl)cc(C#N)c4)c3=O)n[nH]c2=O)c1	8.00
16. N#Cc1cc(Cl)cc(Oc2c(C(F)(F)F)ncn(Cc3cc(CF)c(=O)[nH]n3)c2=O)c1	7.92
17. N#Cc1cc(Cl)cc(Oc2c(C(F)(F)F)ncn(Cc3cc(-c4ccc(C(N)C(F)(F)F)cc4)c(=O)[nH]n3)c2=O)c1 (centres unmarked)	7.74
18. COc1ccc(-c2cc(Cn3cnc(C(F)(F)F)c(Oc4cc(Cl)cc(C#N)c4)c3=O)n[nH]c2=O)c(F)c1	8.22
19. CC(F)c1cc(Cn2cnc(C(F)(F)F)c(Oc3cc(Cl)cc(C#N)c3)c2=O)n[nH]c1=O (centres unmarked)	7.89
20. N#Cc1cc(Cl)cc(Oc2c(C(F)(F)F)ncn(Cc3cnc(-n4cccn4)[nH]c3=O)c2=O)c1	7.46
21. N#Cc1cc(Cl)cc(Oc2c(C(F)(F)F)ncn(Cc3cc(-c4ccc(OC(F)F)cc4)c(=O)[nH]n3)c2=O)c1	8.40
22. N#Cc1cc(Cl)cc(Oc2c(C(F)(F)F)ncn(Cc3cnc(-c4cccc(F)c4)[nH]c3=O)c2=O)c1	8.05
23. N#Cc1cc(Cl)cc(Oc2c(C(F)(F)F)ncn(Cc3cc(-c4ccc(F)c(F)c4F)c(=O)[nH]n3)c2=O)c1	8.00
24. N#Cc1cc(Cl)cc(Oc2c(C(F)(F)F)ncn(Cc3cnc(-c4ccc(Cl)nc4)[nH]c3=O)c2=O)c1	7.49
25. CN(C)c1cc(Cn2cnc(C(F)(F)F)c(Oc3cc(Cl)cc(C#N)c3)c2=O)n[nH]c1=O	8.22
26. N#Cc1cc(Cl)cc(Oc2c(C(F)(F)F)ncn(Cc3cc(C4CC4)n[nH]c3=O)c2=O)c1	8.22
27. N#Cc1cc(Cl)cc(Oc2c(C(F)(F)F)ncn(Cc3cc(-c4ccccc4)n[nH]c3=O)c2=O)c1	8.52
28. N#Cc1cc(Cl)cc(Oc2c(C(F)(F)F)ncn(Cc3cc(-c4cccc5c4OCC5)c(=O)[nH]n3)c2=O)c1	7.96
29. Cc1ccc(-c2cc(Cn3cnc(C(F)(F)F)c(Oc4cc(Cl)cc(C#N)c4)c3=O)n[nH]c2=O)cn1	7.85
